Kindly state DC50 for each of the entries shown.
- systemTested: BRD4^Short (Homo sapiens)
- Construct: Western blot data for BET, CRBN and VHL protein levels; endogenous in cells; host or cells: HEK293 (ATCC)
- assayOverview: Western blot dose-response degradation in HEK293 cells
- Format: cell-based
- testSettings: 6 h, mean ± S.E.M. of three experiments, values marked b mean ± S.D. of two
Write it as a number; the unit nM goes unstated.

**Q:** What does the data say about its DC50? Entry: Cc1ncsc1-c1ccc(CNC(=O)[C@@H]2C[C@@H](O)CN2C(=O)[C@@H](NC(=O)COCC(COCCOCCOCCNc2cc3c(cc2F)C(=O)N(C2CCC(=O)NC2=O)C3=O)(COCCOCCOCCOC(=O)C[C@@H]2N=C(c3ccc(Cl)cc3)c3c(sc(C)c3C)-n3c(C)nnc32)COCCOCCOCCOC(=O)C[C@@H]2N=C(c3ccc(Cl)cc3)c3c(sc(C)c3C)-n3c(C)nnc32)C(C)(C)C)cc1 (mixture of isomers)
**A:** 2.9

**Q:** What does the data say about its DC50? Entry: Cc1ncsc1-c1ccc(CNC(=O)[C@@H]2C[C@@H](O)CN2C(=O)[C@@H](NC(=O)COCC(C)(COCCOCCOCCNc2cccc3c2C(=O)N(C2CCC(=O)NC2=O)C3=O)COCCOCCOCCOC(=O)C[C@@H]2N=C(c3ccc(Cl)cc3)c3c(sc(C)c3C)-n3c(C)nnc32)C(C)(C)C)cc1 (mixture of isomers)
**A:** 11

**Q:** What does the data say about its DC50? Entry: Cc1ncsc1-c1ccc([C@H](C)NC(=O)[C@@H]2C[C@@H](O)CN2C(=O)[C@@H](NC(=O)COCC(C)(COCCOCCOCCNc2cc3c(cc2F)C(=O)N(C2CCC(=O)NC2=O)C3=O)COCCOCCOCCOC(=O)C[C@@H]2N=C(c3ccc(Cl)cc3)c3c(sc(C)c3C)-n3c(C)nnc32)C(C)(C)C)cc1 (mixture of isomers)
**A:** 2.1

**Q:** What does the data say about its DC50? Entry: Cc1ncsc1-c1ccc(CNC(=O)[C@@H]2C[C@@H](O)CN2C(=O)[C@@H](NC(=O)COCC(C)(COCCOCCNc2cc3c(cc2F)C(=O)N(C2CCC(=O)NC2=O)C3=O)COCCOCCOC(=O)C[C@@H]2N=C(c3ccc(Cl)cc3)c3c(sc(C)c3C)-n3c(C)nnc32)C(C)(C)C)cc1 (mixture of isomers)
**A:** 4.4

**Q:** What does the data say about its DC50? Entry: Cc1ncsc1-c1ccc(CNC(=O)[C@@H]2C[C@@H](O)CN2C(=O)[C@@H](NC(=O)COCC(C)(COCCOCCOCCNc2cccc3c2C(=O)N(C2CCC(=O)NC2=O)C3=O)COCCOCCOC(=O)C[C@@H]2N=C(c3ccc(Cl)cc3)c3c(sc(C)c3C)-n3c(C)nnc32)C(C)(C)C)cc1 (mixture of isomers)
**A:** 18

The origin of these recorded values is paper PMC11638965.
